- target under test: T1, human LRRC15 extracellular domain with C-terminal His tag (human, UniProt Q8TF66 22-538)
- T1 construct: Recombinant, made in HEK293; the entry holds the extracellular domain and the His tag; SPR analyte; also called TPP-1545; hLRRC15 CT-His
- T1 sequence: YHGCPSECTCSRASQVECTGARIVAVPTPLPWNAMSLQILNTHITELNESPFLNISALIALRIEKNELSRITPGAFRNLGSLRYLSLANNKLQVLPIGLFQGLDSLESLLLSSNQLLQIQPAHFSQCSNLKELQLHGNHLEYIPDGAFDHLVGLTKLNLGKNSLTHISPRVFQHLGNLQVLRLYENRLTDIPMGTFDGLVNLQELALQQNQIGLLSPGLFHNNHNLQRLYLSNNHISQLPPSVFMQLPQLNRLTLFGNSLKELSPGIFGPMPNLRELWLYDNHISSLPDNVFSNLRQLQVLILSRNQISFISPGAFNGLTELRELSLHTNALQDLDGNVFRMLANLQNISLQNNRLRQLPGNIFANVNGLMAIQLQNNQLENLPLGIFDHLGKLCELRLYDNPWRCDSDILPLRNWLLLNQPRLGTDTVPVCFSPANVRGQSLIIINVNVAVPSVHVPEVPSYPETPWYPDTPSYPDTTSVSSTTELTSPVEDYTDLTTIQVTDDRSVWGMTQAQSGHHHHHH
- experimental protocol: calculated from SPR kd, 25°C
outcome measure: Complex Half Life (h)
Expressed in h, but write only the number.

TPP-17078 (antibody, human IgG1, kappa, V domains shown, also called 438H-M308-H05-hIgGkappa) VH: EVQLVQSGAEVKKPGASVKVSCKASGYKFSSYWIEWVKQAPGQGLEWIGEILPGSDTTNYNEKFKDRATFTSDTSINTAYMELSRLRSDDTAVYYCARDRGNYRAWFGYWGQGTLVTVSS VL: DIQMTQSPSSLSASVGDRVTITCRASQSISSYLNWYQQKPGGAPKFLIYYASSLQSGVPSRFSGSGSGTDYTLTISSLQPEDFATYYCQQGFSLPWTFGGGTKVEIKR    2.12
TPP-1633 (antibody, human IgG1, kappa, V domains shown, also called 060E-M016-G14-hIgG1) VH: EVQLLESGGGLVQPGGSLRLSCAASGFTFSGYMMQWVRQAPGKGLEWVSGIYPSGGYTNYADSVKGRFTISRDNSKNTLYLQMNSLRAEDTATYYCAREKASDLSGSYSEALDYWGQGTLVTVSS VL: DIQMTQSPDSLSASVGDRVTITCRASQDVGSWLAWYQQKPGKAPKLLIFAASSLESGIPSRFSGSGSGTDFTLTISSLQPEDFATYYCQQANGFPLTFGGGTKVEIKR    0.00833
TPP-14392 (antibody, human IgG1, kappa, V domains shown, also called 13612-rec05-hIgG1Kappa) VH: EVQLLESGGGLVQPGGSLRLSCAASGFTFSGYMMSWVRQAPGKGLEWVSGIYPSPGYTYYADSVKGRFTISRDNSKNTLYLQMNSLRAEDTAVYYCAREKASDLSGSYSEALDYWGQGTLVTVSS VL: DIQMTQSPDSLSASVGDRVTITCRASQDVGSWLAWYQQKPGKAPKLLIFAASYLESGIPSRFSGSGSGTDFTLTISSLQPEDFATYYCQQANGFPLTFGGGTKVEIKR    0.567

Moving on to the next binder.
Exercise: Name the reported Complex Half Life value associated with the binder TPP-17421 (antibody, human IgG1, kappa, V domains shown, also called 438H-M306-C11-hIgG1Kappa) VH: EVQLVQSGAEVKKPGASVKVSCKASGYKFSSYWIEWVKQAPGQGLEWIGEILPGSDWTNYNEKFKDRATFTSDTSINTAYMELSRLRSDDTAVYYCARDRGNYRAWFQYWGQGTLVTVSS VL: DIQMTQSPSSLSASVGDRVTITCRASQSISSYLNWYQQKPGGAPKFLIYYASSLQSGVPSRFSGSGSGTDYTLTISSLQPEDFATYYCQQGLELPWTFGGGTKVEIKR
Key: 3.63
